test: Critical solubility temperature (CST) in n-hexane; conditions: critical solubility temperature in n-hexane

# molecule, units, CST
records = [
    ("FC(F)(F)C(F)(F)C(F)(F)C(F)(F)C=CC(F)(F)C(F)(F)C(F)(F)C(F)(F)F", "°C", 22.5),
    ("FC(F)(F)C(F)(F)C(F)(F)C(F)(F)N(C(F)(F)C(F)(F)C(F)(F)C(F)(F)F)C(F)(F)C(F)(F)C(F)(F)C(F)(F)F", "°C", 59),
    ("FC1(F)OC(F)(F)C(F)(F)N(C(F)(F)C2(F)C(F)(F)C(F)(F)C(F)(F)C(F)(F)C2(F)F)C1(F)F", "°C", 38.5),
    ("FC(F)(F)C1(F)C(F)(F)C(F)(F)C(F)(F)C(F)(F)C1(F)F", "°C", 8.2),
    ("FC(F)(F)C(F)(F)C(F)(F)C(F)(F)C1(F)OC(F)(F)C(F)(F)C1(F)F (stereo not drawn) [Perfluorobutyltetrahydrofuran, perfluorobutyltetrahydrofuran]", "°C", 29),
    ("FC(F)(F)C(F)(F)C(F)(F)C(F)(F)C(F)(F)C(F)(F)OC(F)(F)C(F)(F)C(F)(F)C(F)(F)C(F)(F)C(F)(F)F", "°C", 59),
]

The measurements presented in this section are drawn from patent US5686102A.
